test system: K4 kissing-loop RNA reporter; experiment: apparent KD of K4 kissing-loop reporter; higher = weaker reporter binding; details: Eterna round: R107; input ligand: tryptophan 2.4 mM;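 note: bound reporter read as fluorescence of individual clusters on recovered sequencing chips by microscopy, with normalized cluster intensities fitted with a binding model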
In this scheme, each record receives a class according to its apparent KD of K4 kissing-loop reporter; the ranges are class 1 (below 200 nM), class 2 (200 nM to below 400 nM), class 3 (400 nM or more)

Classify this sequence: UAAGGGUUAUGUCCUCGGUGCGAAGAGCUCCGAGGACCGGUACGGCCGCCACUCGGAAGUUCUGAGUGAGGGAGUGAUGUUCCCU [Skye_Ex_TA]
class 2

Follow-up item: AAACCAAUCAGAGGAUAUUCUUUAUUCGACAUAAAUUUCUAUAAAUUGCAGUGAUGUUGCAAUAUAGGAGAAGGCUGAUUGACAA [Exclusion FMN B Gf 12]
class 2

And then AGUUUAGAGUGACUCGAUAAGAGUCACAAACGAGGACCGGUACGGCCGCCACUCGAAAUAACGAGAGUGAUGUUCUCGCUGGGUA [FiskerMod 4 - Jieux - Same State Tryptophan A] , what is it?
class 1

Could you do the same for AGGAUGUAGUGAUGUUAUAUAAGAAGUAAACGAGGACCGGUACGGCCGCCACUCGAAGCGGCUACUAGCGCGUUGCGAGGUGUGC [ExTryptoA.Ce] , please?
class 2

# repeat for CAUGCCAUGAUCCUCCUGGUAUCUCCUGAUACCAGCGUGCUGACACGCCCUUGGCAGCAGGAGUCGAGAGUGAUGUUGUCGAGAA [KL-SSTheo-A9 #analogue]
class 2

Field entry: ACGUCAUAUGUAAUGGUGGUUUCGAUCGAUACCAGUAGCGAGAGUUACCCUUGGCAGCGACAUGAGUGAUGUUCAUGUAUGAAGA [KL-XTheo-A2 #analogue]
class 1

What about this sequence? AAAUAAAUGGCGGCCGCCACUGAACGCCUCCGCGUGGGUAUAUAGUGAUGUUAUAUGGCCGCCAUCAGGACCGGGCCAAAUAAAA [#08 K4 Tryptophan B Same State]
class 2

Same read-out for AAGAAUAAUCUUGCAGUGAUGUUGCAAGAUACCAGCAUCGAAAGAUGCCCUUGGCAGCUUGAAAACAUCACUAUCAAGCUGCAUA [Design2] ?
class 3

Further, for GGUCGAGUGAUGUUCGAUGUAGUGCAUUCAGAGGAUAUAGGAUUGGCUAGAAGGCUGAAACCUUCUUCGAGUGAUGUUCGAGGAU [Same State FMN A GF5] ?
class 1

Let us now turn to UUUGUAUAGGGAAGGAGCGUGAAUGAUAAAGAAUAUAGUGAUGUUAUAUAGAAGAAAGAAUCACAGGUAGGUCGCCCGGAGGAGG [SSArgB.H]
class 2

Try this sequence too: UAUAUGCAGUGAUGUUGCGGCACACUUCCGAAGGAUAUGUCCGGUGACAGAAGGUCGGUCCAUGGGACAUCACGUGUGCUUGAUG [theeternabot_exclusion_KL_FMN_A_15]
class 3

----------
test system: MS2 coat protein; test: apparent KD of MS2 coat protein; higher = weaker reporter binding; conditions: Eterna round: R107; input ligand: arginine 13.2 mM
OBSERVABLE: apparent KD of MS2 coat protein (µM)
Write the value in µM as a bare number.

- CGAUGAUGAAGGGAUACCAGAAAUGGUAUUCCUUUAUUUCUUACAUGAGGAUCACCCAUGUUCCCUUGGCAGCUUUUUAUCAUCG [ETHB #6]: 0.0493
- GCACCAGGUACGGAUACCAGACGUUGCCAAACAGGGUGACAUGAGGAUCACCCAUGUACUGUCCCUUGGCAGCCGUACCUGGUGC [EThB NP+V+V2 #4 +-Same Structure]: 0.0202
- UAAACUACACAUGAGGAUCACCCAUGUGGCCGAGGACCGGUACGGCCGCCACUCGUGUGUUAAUAAAAGAACUGCAAAGUUCCUU [Aquen]: 0.0631
- AUUAAUUUAUUUCUCAAUUUAAUUUCAGAAGGAGCGUGAUGUUUCACAGGUAGGUCGCUGUUUACAUGAGGAUCACCCAUGUUUU [JR_SSArginiA_Sub004]: 0.032
- UACUUGCUGACGGCCGCCACUAGAACAUGAGGAUCACCCAUGUACCCGGUCCUACAUGGGAUGACUAGGACCGGGUCAGCAAGAU [(Trp1)-(Ms2)-(T)'-(M)'-(Trp2)_Design3]: 0.0396

Can you share its apparent KD of MS2 coat protein? I mean this sequence: GCGGAAUAAUCGGCCGCCACUAUGAGACAGGAAACUGUCACAUGAGGAUCACCCAUGUAUCCUCAUAGGACCGGGAUUAAAACGC [Melting point difference]
0.0768
